// data source = paper PMC10597649

- protocol details: in vivo
- assay conditions: male, Sprague-Dawley, rat, plasma, po, C max, MDA group: T2DM rats, ARE 300 mg/kg intragastric once a day for 7 days + DAPA single dose 1.05 mg/kg on day 7; n = 6, mean ± SD
readout label: Cmax (ng/mL)
Answers are plain numbers, in ng/mL.

**Query** Need Cmax of `CCOc1ccc(Cc2cc([C@@H]3O[C@H](CO)[C@@H](O)[C@H](O)[C@H]3O)ccc2Cl)cc1` , thanks.
**Result** 427

---

- protocol details: in vivo
- assay conditions: male, Sprague-Dawley, rat, plasma, po, 1.05 mg/kg, tmax, MDA-H group: T2DM rats, ARE 900 mg/kg once a day for 7 days + DAPA single dose 1.05 mg/kg on day 7; n=6, mean ± SD
readout label: Tmax (h)
Give bare numbers, in h.

**Query** Need Tmax of `CCOc1ccc(Cc2cc([C@@H]3O[C@H](CO)[C@@H](O)[C@H](O)[C@H]3O)ccc2Cl)cc1` , thanks.
**Result** 1.45

---

- protocol details: Pharmacokinetics of DAPA in healthy rats (alone or co-administered with ARE), plasma by UPLC-MS/MS
- Format: in vivo, Sprague Dawley (SD) rats
- assay conditions: male, Sprague-Dawley, rat, plasma, po, 1.05 mg/kg, CDA-L group: healthy rats, ARE 300 mg/kg once a day for 7 days + DAPA single dose 1.05 mg/kg on day 7; n=6, mean ± SD; read-out: MRT(0-t)
readout label: MRT last (h)
One number for each entry, in h.

**Query** Need MRT last of `CCOc1ccc(Cc2cc([C@@H]3O[C@H](CO)[C@@H](O)[C@H](O)[C@H]3O)ccc2Cl)cc1` , thanks.
**Result** 5.16

---

- protocol details: in vivo
- assay conditions: male, Sprague-Dawley, rat, plasma, po, t max, MDA group: T2DM rats, ARE 300 mg/kg intragastric once a day for 7 days + DAPA single dose 1.05 mg/kg on day 7; n = 6, mean ± SD
readout label: Tmax (h)
Answers are plain numbers, in h.

**Query** Need Tmax of CCOc1ccc(Cc2cc([C@@H]3O[C@H](CO)[C@@H](O)[C@H](O)[C@H]3O)ccc2Cl)cc1 [DAPA, Dapagliflozin] , thanks.
**Result** 1.5

---

- protocol details: Pharmacokinetics of DAPA in healthy rats (alone or co-administered with ARE), plasma by UPLC-MS/MS
- Type: in vivo, Sprague Dawley (SD) rats
- assay conditions: male, Sprague-Dawley, rat, plasma, po, 1.05 mg/kg, CDA-H group: healthy rats, ARE 900 mg/kg once a day for 7 days + DAPA single dose 1.05 mg/kg on day 7; n=6, mean ± SD; read-out: Cmax
readout label: Cmax (ng/mL)
Give bare numbers, in ng/mL.

**Query** Need Cmax of CCOc1ccc(Cc2cc([C@@H]3O[C@H](CO)[C@@H](O)[C@H](O)[C@H]3O)ccc2Cl)cc1 [DAPA, Dapagliflozin] , thanks.
**Result** 538

---

- protocol details: Pharmacokinetics of DAPA in healthy rats (alone or co-administered with ARE), plasma by UPLC-MS/MS
- Format: in vivo, Sprague Dawley (SD) rats
- assay conditions: male, Sprague-Dawley, rat, plasma, po, CDA group: healthy rats, ARE 300 mg/kg intragastric once a day for 7 days + DAPA single dose 1.05 mg/kg on day 7; n = 6, mean ± SD
readout label: half-life (h)
Numbers only, in h.

**Query** Need half-life of CCOc1ccc(Cc2cc([C@@H]3O[C@H](CO)[C@@H](O)[C@H](O)[C@H]3O)ccc2Cl)cc1 [DAPA, Dapagliflozin] , thanks.
**Result** 3.8
